- assay_notes: growth suppression of beta-catenin-knockout colon cells, dose response, cell-based, HCT116, human colon tumor (AID 1045);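 note: HCT116 colon tumor cells with beta catenin knocked out; cells exposed to compound for 60 hours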
- Type: functional
Activity calls are given as the source filed them. The rule behind the calls is not given here.
measurement_name: EC50

- N#C/C(=C\c1ccc([N+](=O)[O-])o1)c1nc2ccccc2[nH]1: 1.01 µM (active)
- COc1ccc(C2c3c(oc4ccccc4c3=O)C(=O)N2c2ccccn2)cc1OC (centres undefined): 20.7 µM (active)
- O=[N+]([O-])/C=C/c1cn(Cc2ccc(F)cc2)c2ccccc12: 16.4 µM (active)
- CC(C)=CCC/C(C)=C/CC(C)(C)CNCCN1CCNCC1: 5.89 µM (active)
